Examples of compounds with documented pIC50 follow.
# System Name: Adenosylhomocysteinase (Homo sapiens, UniProt P23526)
# Sequence (P23526 whole entry): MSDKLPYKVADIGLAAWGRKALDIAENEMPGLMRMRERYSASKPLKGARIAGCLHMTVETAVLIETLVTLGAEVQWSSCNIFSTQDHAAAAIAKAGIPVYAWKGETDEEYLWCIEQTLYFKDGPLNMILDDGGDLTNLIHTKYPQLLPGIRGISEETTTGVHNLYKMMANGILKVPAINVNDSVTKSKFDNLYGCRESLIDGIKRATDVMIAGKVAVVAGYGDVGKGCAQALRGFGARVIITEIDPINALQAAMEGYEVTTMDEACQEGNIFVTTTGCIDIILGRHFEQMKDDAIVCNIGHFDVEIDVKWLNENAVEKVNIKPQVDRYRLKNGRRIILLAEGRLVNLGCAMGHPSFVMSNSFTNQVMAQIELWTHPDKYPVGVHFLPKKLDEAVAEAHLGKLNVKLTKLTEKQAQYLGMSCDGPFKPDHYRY
# Assay Comment: In vitro inhibitory activity against recombinant S-adenosyl-L-homocysteine hydrolase obtained from human placenta
pIC50 here is simply -log10 of the concentration when that concentration is written in mol/L.

Please review the entries below; each comes with its answer.
> print(dat)
                           smiles.structure  measured.attribute  reported.measurement
1  Nc1ncnc2c1ncn2[C@@H]1C(F)=C(CO)[C@@H](O)[C@H]1O               pIC50                  6.33
2  Nc1ncnc2c1ncn2[C@@H]1C=C[C@@H](O)[C@H]1O               pIC50                  5.06
3  Nc1ncnc2c1ncn2[C@@H]1C(F)=C[C@@H](O)[C@H]1O               pIC50                  5.05

Enquiry: Find the measured pIC50: item "Nc1ncnc2c1ncn2[C@@H]1C=C(CO)[C@@H](O)[C@H]1O" , target or system Adenosylhomocysteinase (Homo sapiens, UniProt P23526).
Return: 6.05
